- test protocol: Cytotoxicity against human Hs578T cells after 2 days by sulforhodamine B assay
- Type: functional
- test parameters: Hs-578T, 48 h
value type: GI50 (µM)
Number in µM, nothing else.

The recorded GI50 for entry `CC/C(=C(/c1ccc(OCCN(C)C)cc1)c1ccc(OC(=O)CCC(=O)C2=C(C)/C(=C/c3[nH]c(-c4ccc[nH]4)cc3OC)N=C2C)cc1)c1ccccc1` equals 1.15

// GI50 lookup, compound = `CCC(=C(c1ccc(OCCN(C)C)cc1)c1ccc(OC(=O)CCCCC(=O)C2=C(C)/C(=C/c3[nH]c(-c4ccc[nH]4)cc3OC)N=C2C)cc1)c1ccccc1` , result: 5.01

GI50 reported for this compound `COc1cc(-c2ccc[nH]2)[nH]c1/C=C1\N=C(C)C(C(=O)CCC(=O)Oc2ccc3c(c2)CC[C@@H]2[C@@H]3CC[C@]3(C)C(=O)CC[C@@H]23)=C1C` : 14.2

Entry under test: `CC/C(=C(/c1ccc(OCCN(C)C)cc1)c1ccc(OC(=O)CCCCCCCCC(=O)C2=C(C)/C(=C/c3[nH]c(-c4ccc[nH]4)cc3OC)N=C2C)cc1)c1ccccc1` . Its GI50 was 4.79

---

- Test system: HOP-62
- test protocol: Cytotoxicity against human HOP62 cells after 2 days by sulforhodamine B assay
- Format: functional
- test parameters: HOP-62, 48 h
Below is a list of entries, each paired with its recorded GI50 value.
Write the numeric value and append its unit.

Consider the worked cases shown below.
# mol smiles, assay system, GI50
measured = [
    ("CC/C(=C(/c1ccc(OCCN(C)C)cc1)c1ccc(OC(=O)CCC(=O)C2=C(C)/C(=C/c3[nH]c(-c4ccc[nH]4)cc3OC)N=C2C)cc1)c1ccccc1", "HOP-62", "1.43 µM"),
    ("CCC(=C(c1ccc(OCCN(C)C)cc1)c1ccc(OC(=O)CCCCC(=O)C2=C(C)/C(=C/c3[nH]c(-c4ccc[nH]4)cc3OC)N=C2C)cc1)c1ccccc1", "HOP-62", "12.3 µM"),
    ("COc1cc(-c2ccc[nH]2)[nH]c1/C=C1\\N=C(C)C(C(=O)CCC(=O)Oc2ccc3c(c2)CC[C@@H]2[C@@H]3CC[C@]3(C)C(=O)CC[C@@H]23)=C1C", "HOP-62", "18.3 µM"),
]

Could you now consider this next compound?
So for `CC/C(=C(/c1ccc(OCCN(C)C)cc1)c1ccc(OC(=O)CCCCCCCCC(=O)C2=C(C)/C(=C/c3[nH]c(-c4ccc[nH]4)cc3OC)N=C2C)cc1)c1ccccc1` , the logged GI50 turned out to be 16.9 µM

---

The entries below are paired with their reported LC50.
- Tested on: MDA-MB-231
- test protocol: Cytotoxicity against human MDA-MB-231 cells after 2 days by sulforhodamine B assay
- Type: functional
- test parameters: MDA-MB-231, 48 h
Field: numeric (µM). Do not append units.

# mol smiles, assay system, LC50 / µM
measured = [
    ("CCC(=C(c1ccc(OCCN(C)C)cc1)c1ccc(OC(=O)CCCCC(=O)C2=C(C)/C(=C/c3[nH]c(-c4ccc[nH]4)cc3OC)N=C2C)cc1)c1ccccc1", "MDA-MB-231", 33.9),
    ("COc1cc(-c2ccc[nH]2)[nH]c1/C=C1\\N=C(C)C(C(=O)CCC(=O)Oc2ccc3c(c2)CC[C@@H]2[C@@H]3CC[C@]3(C)C(=O)CC[C@@H]23)=C1C", "MDA-MB-231", 23),
]

Proceeding to the next molecule to report its LC50.
Record `CC/C(=C(/c1ccc(OCCN(C)C)cc1)c1ccc(OC(=O)CCC(=O)C2=C(C)/C(=C/c3[nH]c(-c4ccc[nH]4)cc3OC)N=C2C)cc1)c1ccccc1` , field LC50: 20.3
